measured on: Biotin QP004.3 (biotin-PDL1-FC) (human) (UniProt Q9NZQ7)
Sequence (Q9NZQ7 19-238 limits assumed): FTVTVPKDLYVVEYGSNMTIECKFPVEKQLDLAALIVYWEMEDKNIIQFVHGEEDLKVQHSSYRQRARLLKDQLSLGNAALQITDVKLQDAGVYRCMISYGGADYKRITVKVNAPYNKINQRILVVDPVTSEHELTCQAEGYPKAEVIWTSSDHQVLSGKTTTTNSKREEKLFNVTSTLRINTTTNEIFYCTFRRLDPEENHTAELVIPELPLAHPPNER
measurement protocol: binding ELISA, antibody coated, biotin-PDL1-FC titrated
quantity measured: ELISA reading at 2.0000 µg/ml biotin-PDL1-FC

1) QP320 (Fc fusion, not shown: a dimerising Fc or GST) EVQLLESGGGLVQPGGSLRLSCAASGFTYGTYAMSWVRQAPGKGLEWVSCIDIYGRASYTDPVKGRFTISRDNSKNTLYLQMNSLRAEDTAVYYCAARDFGYCTASWVHEGFSRYWGQGTLVTVSS; 0.23
2) QP1166 (Fc fusion, not shown: a dimerising Fc or GST) QVQLVESGGDSVQPGGSLRLSCAASGFTYGTYAMSWFRQAPGKEREGVACIDIYGRTSYTDPVKGRFTISQDNAKNTLYLQMNSLKPEDTAMYYCAARDFGYCTASWVHEGFSRYWGQGTQVTVSS; 3.41
3) QP324 (Fc fusion, not shown: a dimerising Fc or GST) EVQLLESGGGLVQPGGSLRLSCAASGFTYGTYAMSWVRQAPGKGLEWVACIDIYGRTSYTDPVKGRFTISQDNSKNTLYLQMNSLRAEDTAVYYCAARDFGYCTASWVHEGFSRYWGQGTLVTVSS; 0.413
4) QP325 (Fc fusion, not shown: a dimerising Fc or GST) EVQLLESGGGLVQPGGSLRLSCAASGFTYGTYAMSWFRQAPGKGLEGVACIDIYGRTSYTDPVKGRFTISQDNSKNTLYLQMNSLRAEDTAVYYCAARDFGYCTASWVHEGFSRYWGQGTLVTVSS; 3.42
